testedTarget: Plasminogen (Homo sapiens, UniProt P00747)
Sequence (P00747 97-580 limits assumed): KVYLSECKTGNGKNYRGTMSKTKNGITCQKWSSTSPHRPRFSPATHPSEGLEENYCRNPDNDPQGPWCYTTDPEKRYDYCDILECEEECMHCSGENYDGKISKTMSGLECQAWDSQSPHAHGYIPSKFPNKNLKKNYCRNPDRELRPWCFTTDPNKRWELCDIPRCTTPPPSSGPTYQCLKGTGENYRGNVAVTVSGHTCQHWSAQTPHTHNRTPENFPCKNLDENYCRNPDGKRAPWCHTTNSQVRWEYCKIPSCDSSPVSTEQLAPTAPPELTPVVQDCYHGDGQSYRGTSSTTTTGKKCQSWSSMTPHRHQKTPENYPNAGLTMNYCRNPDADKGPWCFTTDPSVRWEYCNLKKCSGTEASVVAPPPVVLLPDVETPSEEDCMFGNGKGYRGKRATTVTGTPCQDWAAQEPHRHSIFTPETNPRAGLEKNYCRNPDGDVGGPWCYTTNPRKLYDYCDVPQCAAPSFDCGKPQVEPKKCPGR
Sequence (P00747 581-810 limits assumed): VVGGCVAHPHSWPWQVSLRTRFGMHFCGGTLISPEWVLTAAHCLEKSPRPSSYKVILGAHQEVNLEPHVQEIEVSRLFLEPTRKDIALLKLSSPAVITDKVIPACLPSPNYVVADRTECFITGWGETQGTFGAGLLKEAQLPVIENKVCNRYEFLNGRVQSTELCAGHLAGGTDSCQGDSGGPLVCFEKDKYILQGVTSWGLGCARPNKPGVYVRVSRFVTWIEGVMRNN
experimentalProtocol: Inhibition of plasmin (unknown origin) assessed as relative potency using Boc-Val-Leu-Lys-MCA as substrate by fluorescence analysis
resultType: fold change (FC)

Cn1c(CN2C(=O)CN(c3ccc4oc(=O)n(C)c4c3)C2=O)cc2cnc(C(=O)N[C@H](C#N)CCCCN)nc21; 3.1
Cn1c(CN2C(=O)CN(c3ccc4c(c3)oc(=O)n4C)C2=O)cc2cnc(C(=O)N[C@H](C#N)CCCCN)nc21; 3.9

A = Cn1c(CN2C(=O)CN(c3ccc(Oc4ccccc4)cc3)C2=O)cc2cnc(C(=O)N[C@H](C#N)CCCCN)nc21
B = Cn1c(CN2C(=O)CN(c3ccc(F)cc3)C2=O)cc2cnc(C(=O)N[C@H](C#N)CCCCN)nc21
Lab notebook, comparison: A versus B , higher fold change (FC) goes to which? Which one? Tell me its label.
B

###

testedTarget: Plasminogen (Homo sapiens)
experimentalProtocol: Inhibition of plasmin (unknown origin) using Boc-Val-Leu-Lys-MCA as substrate by fluorescence analysis
pIC50: −log10 of the molar value.
resultType: pIC50

a = Cn1c(CN2C(=O)CN(c3ccc4c(c3)oc(=O)n4C)C2=O)cc2cnc(C(=O)N[C@H](C#N)CCCCN)nc21
b = Cn1c(CN2C(=O)CN(c3ccc(Oc4ccncc4)cc3)C2=O)nc2ccc(C(=O)N[C@H](C#N)CCCCN)cc21
c = Cn1c(CN2C(=O)CN(c3ccc4oc(=O)n(Cc5ccncc5)c4c3)C2=O)cc2cnc(C(=O)N[C@H](C#N)CCCCN)nc21
Order these compounds (above) by their pIC50, from the smallest value upward. Output spec: a listing of the labels in the requested order.
a, b, c

A = CC(C)Cn1c(=O)oc2ccc(N3CC(=O)N(Cc4cc5cnc(C(=O)N[C@H](C#N)CCCCN)nc5n4C)C3=O)cc21
B = Cn1c(CN2C(=O)CN(c3ccc(Oc4ccncc4)cc3)C2=O)cc2cnc(C(=O)N[C@H](C#N)CCCCN)nc21
Lab notebook, comparison: A versus B , higher pIC50 goes to which? Which one? Tell me its label.
A
(A: 4.54, B: 4.13)

###

pIC50: −log10 of the molar value.
Here's a batch of compounds along with measured pIC50 for UniProt P00749.

Would you please look over these solved cases?
Cn1c(CN2C(=O)CN(c3ccc(Oc4ccncc4)cc3)C2=O)nc2ccc(C(=O)N[C@H](C#N)CCCCN)cc21; < 3.70
Cn1c(CN2C(=O)CN(c3ccc(Oc4ccccc4)cc3)C2=O)cc2cnc(C(=O)N[C@H](C#N)CCCCN)nc21; < 3.70

Please provide the recorded pIC50 for Cn1c(CN2C(=O)CN(c3ccc(Oc4ccncc4)cc3)C2=O)cc2cnc(C(=O)N[C@H](C#N)CCCCN)nc21 , tested on UniProt P00749.
< 3.70

###

pIC50: recorded values
testedTarget: Plasminogen (Homo sapiens, UniProt P00747)
experimentalProtocol: Inhibition of plasmin (unknown origin) using Boc-Val-Leu-Lys-MCA as substrate by fluorescence analysis
pIC50: −log10 of the molar value.

State the recorded pIC50 for this entry: Cn1c(CN2C(=O)CN(c3ccc(Oc4ccccc4)cc3)C2=O)nc2cc(C(=O)N[C@H](C#N)CCCCN)ccc21
< 3.70

State the recorded pIC50 for this entry: CCCn1c(=O)oc2ccc(N3CC(=O)N(Cc4cc5cnc(C(=O)N[C@H](C#N)CCCCN)nc5n4C)C3=O)cc21
4.59

State the recorded pIC50 for this entry: N#C[C@H](CCCCN)NC(=O)c1nc2cc(CN3C(=O)CN(c4ccc(F)cc4)C3=O)ccc2o1
< 3.70

State the recorded pIC50 for this entry: CC(C)Cn1c(=O)oc2cc(N3CC(=O)N(Cc4cc5cnc(C(=O)N[C@H](C#N)CCCCN)nc5n4C)C3=O)ccc21
< 3.70
